Just for reference, ChEMBL document CHEMBL3621154 is where these values come from.

Sequence of the target: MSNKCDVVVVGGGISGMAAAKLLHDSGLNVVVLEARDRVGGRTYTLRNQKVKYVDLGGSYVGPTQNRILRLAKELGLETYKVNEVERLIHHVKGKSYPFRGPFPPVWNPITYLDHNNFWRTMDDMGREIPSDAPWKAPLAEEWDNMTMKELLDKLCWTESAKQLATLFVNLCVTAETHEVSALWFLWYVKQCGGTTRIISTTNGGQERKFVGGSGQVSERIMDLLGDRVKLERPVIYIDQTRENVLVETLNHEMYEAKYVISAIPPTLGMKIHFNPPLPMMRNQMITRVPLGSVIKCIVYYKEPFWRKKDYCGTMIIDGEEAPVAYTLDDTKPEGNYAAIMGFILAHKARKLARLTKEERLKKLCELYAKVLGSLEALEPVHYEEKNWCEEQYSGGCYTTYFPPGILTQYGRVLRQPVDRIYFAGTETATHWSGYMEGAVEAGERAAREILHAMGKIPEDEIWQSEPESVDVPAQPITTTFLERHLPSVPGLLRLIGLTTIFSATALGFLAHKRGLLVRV
Property Name: IC50

input: Given the entry `Nc1nnc(NCc2c(Cl)cccc2Oc2ccccc2)[nH]1` , report its measured IC50.
output: > 100 µM
